# systemName: T1, His-tagged human HtrA1 protease domain (human, UniProt Q92743 161-367)
# T1 construct: His-tagged protease domain; also called huHtrA1-PD-His; huHtrA1-PD
# T1 sequence (Q92743 other isoform, or with tags, fused parts or gaps limits assumed): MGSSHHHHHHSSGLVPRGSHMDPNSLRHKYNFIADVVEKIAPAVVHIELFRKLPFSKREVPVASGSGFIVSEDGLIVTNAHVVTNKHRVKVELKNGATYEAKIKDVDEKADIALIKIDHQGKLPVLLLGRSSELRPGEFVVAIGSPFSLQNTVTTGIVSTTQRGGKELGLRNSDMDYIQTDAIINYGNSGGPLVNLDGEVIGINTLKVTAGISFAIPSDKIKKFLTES
# assayName: BIACORE T200 SPR; Fab analyte over huHtrA1-PD-His captured by anti-His antibody
endpointLabel: koff (s⁻¹)
Field format: number, assumed s⁻¹, no unit text.

Query :: Look up koff of APEG.LC37.HC23 (Fab, V domains shown, single member of the group m82) VH: EVQLVQSGAEVKKPGASVKVSCKASGYKFRDSEMHWVRQAPGQGLEWIGGVDPETEGAAYNQKFKGRATITRDTSTSTAYLELSSLRSEDTAVYYCTRGYDYDYALDYWGQGTLVTVSS VL: DIQMTQSPSSLSASVGDRVTITCRASSSVEFIHWYQQKPGKAPKPLISATSNLASGVPSRFSGSGSGTDFTLTISSLQPEDFATYYCQQWYSAPWTFGQGTKVEIK and report it.
Result :: 6.41e-05

Query :: Look up koff of APEG.LC7.HC1 (Fab, V domains shown) VH: EVQLVQSGAEVKKPGASVKVSCKASGYTFKDSEMHWVRQAPGQGLEWIGGVDPETEGAAYNQKFKGRATITRDTSTSTAYLELSSLRSEDTAVYYCTRGYDYDYALDYWGQGTLVTVSS VL: DIQMTQSPSSLSASVGDRVTITCRASSSVNFIHWYQQKPGKAPKPLISATSNLASGVPSRFSGSGSGTDFTLTISSLQPEDFATYYCQQWYSAPWTFGQGTKVEIK and report it.
Result :: 2.75e-05

Query :: Look up koff of h15H6.v4 Fab (Fab, V domains shown, Tested as Fab; also called APEG.LC3.HC3; Fab15H6.v4) VH: EVQLVQSGAEVKKPGASVKVSCKASGYKFTDSEMHWVRQAPGQGLEWIGGVDPETEGAAYNQKFKGRATITRDTSTSTAYLELSSLRSEDTAVYYCTRGYDYDYALDYWGQGTLVTVSS VL: DIQMTQSPSSLSASVGDRVTITCRASSSVEFIHWYQQKPGKAPKPLISATSNLASGVPSRFSGSGSGTDFTLTISSLQPEDFATYYCQQWSSAPWTFGQGTKVEIK and report it.
Result :: 3.29e-05
